organism: Homo sapiens; conditions: at 0.5 µM;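 further: HDAC activity measured in a nuclear extract, with percent inhibition expressed against control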
Description: Inhibition of HDAC (unknown origin) nuclear extract at 0.5 uM relative to control
Please mark criterion met if the recorded inhibition is equal to or greater than 30%, and criterion not met if it falls below.

Consider the worked cases shown below.
Item COc1ccc(N(Cc2cccc(NC(=O)CCc3ccc(F)cc3)c2)C(=O)CCCCCC(=O)NO)cc1 with inhibition of 30% or above? criterion met

Try this molecule next: COc1ccccc1N(Cc1cccc(C(=O)NCc2ccccc2)c1)C(=O)CCCCCC(=O)NO criterion met

Do the same for CCC(=O)Nc1cccc(CN(C(=O)CCCCCC(=O)NO)c2ccccc2OC)c1 please criterion not met

Again, but for COc1ccccc1N(Cc1cccc(C(=O)NCCCCc2ccc(F)cc2)c1)C(=O)CCCCCC(=O)NO criterion met

How about CCNC(=O)c1cccc(CN(C(=O)CCCCCC(=O)NO)c2ccc(OC)cc2)c1 ? criterion met

Next:
Does the reported inhibition for COc1ccccc1N(Cc1cccc(C(=O)NCCc2ccc(F)cc2)c1)C(=O)CCCCCC(=O)NO fall at or above the 30% mark? criterion met

Okay, and COc1ccccc1N(Cc1cccc(Br)c1)C(=O)CCCCCC(=O)NO ? criterion not met

Param item: CCNC(=O)c1cccc(CN(C(=O)CCCCCC(=O)NO)c2ccc(O)cc2)c1 criterion not met

Also check COc1ccc(CCNC(=O)c2cccc(CN(C(=O)CCCCCC(=O)NO)c3ccccc3OC)c2)cc1 criterion not met

Sourced from ChEMBL document CHEMBL4373678
